- Tested on: SNB-75 CNS
- assay method text: NCI-60 one-dose screen, 48 h (100 = growth as untreated, 0 = no growth, -100 = all killed)
- condition label: 10 µM unless noted
About 83,000 compounds went through this panel and 20% of them were active in at least one assay; those are over-represented in the sample as a whole.
Exercise: state measured growth for each of the compounds provided.
Numbers only, in %.

Observe how each entry below is paired with its result.
Clc1nnc2c3ccccc3ccn12: 82.2
CC(C)[C@@]12C[C@@H](OC(=O)C3CO3)[C@@](C)(O1)[C@@H]1CC[C@@H](C)[C@H]1[C@@H]2OC(=O)/C=C/c1ccccc1 (some centres undefined): 80.5
S=C(S)Oc1cccc2cccnc12: 87

Then there is this compound:
stdin: Give recorded growth with SNB-75 CNS for the following compound: CC(=O)O[C@H]1CC[C@]2(C)[C@H]3CC=C4[C@@H]5CC(C)(C)CC[C@]5(C(=O)OCC(COC(=O)C(Cl)Cl)(COC(=O)C(Cl)Cl)NC(=O)C(Cl)Cl)CC[C@@]4(C)[C@]3(C)CC[C@H]2C1(C)C
stdout: 85.9
